# assay explanation: Cmax in rat at 10 mg/kg
# Format: ADME, organism-based
# Set-up: dose 10 mg/kg
# condition set: in vivo
value type: Cmax (nM)
Hi! Could you send only the number? It should be in nM, unit omitted.

Prompt: # input compound: COC(=O)N[C@H](C(=O)N1CCC[C@H]1c1ncc(-c2ccc3c(c2)cc2n3[C@H](c3ccccc3)Oc3cc(-c4cnc([C@@H]5CCCN5C(=O)[C@@H](NC(=O)OC)C5CCOCC5)[nH]4)ccc3-2)[nH]1)C(C)C ; wanted: its Cmax
Response: 31

====

# System: Nonstructural protein 5A (Hepatitis C virus), Q5L478 [Y93H]
# Sequence (Q5L478 entry or part of it Y93H): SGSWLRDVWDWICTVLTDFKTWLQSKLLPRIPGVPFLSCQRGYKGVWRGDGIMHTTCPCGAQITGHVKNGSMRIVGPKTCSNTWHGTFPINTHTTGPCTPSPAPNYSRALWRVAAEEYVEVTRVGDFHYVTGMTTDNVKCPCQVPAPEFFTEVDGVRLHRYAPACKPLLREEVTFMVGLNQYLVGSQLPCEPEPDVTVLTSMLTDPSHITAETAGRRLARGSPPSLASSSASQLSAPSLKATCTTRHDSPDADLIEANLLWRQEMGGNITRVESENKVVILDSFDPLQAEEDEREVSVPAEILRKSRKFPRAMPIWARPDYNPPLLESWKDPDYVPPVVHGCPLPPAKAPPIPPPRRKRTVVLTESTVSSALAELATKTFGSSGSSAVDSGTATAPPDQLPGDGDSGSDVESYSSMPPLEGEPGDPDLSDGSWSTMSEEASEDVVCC
# assay explanation: Inhibition of HCV genotype 1a NS5A Y93H mutant assessed as reduction in viral RNA level by cell based real time PCR method
# condition set: Hepatitis C virus subtype 1a
Reported EC90 values are given for each entry in this list.
# unit: nM | format: bare number

Worked cases, answers included:
COC(=O)N[C@H](C(=O)N1CCC[C@H]1c1ncc(-c2ccc3c(c2)cc2n3[C@H](c3ccccc3)Oc3cc(-c4cnc([C@@H]5CCCN5C(=O)[C@@H](NC(=O)OC)C5CCOCC5)[nH]4)ccc3-2)[nH]1)C(C)C; 11
COC(=O)N[C@H](C(=O)N1CCC[C@H]1c1ncc(-c2ccc3c(c2)O[C@@H](c2ccccc2)n2c-3cc3cc(-c4cnc([C@@H]5CCCN5C(=O)[C@@H](NC(=O)OC)C5CCC(F)(F)CC5)[nH]4)ccc32)[nH]1)C1CCC(F)(F)CC1; 39

Shifting focus to the compound that follows.
Prompt: Dear colleague, I am looking for the recorded EC90 of the following compound: COC(=O)N[C@H](C(=O)N1CCC[C@H]1c1ncc(-c2ccc3c(c2)O[C@@H](c2ccccc2)n2c-3cc3cc(-c4cnc([C@@H]5CCCN5C(=O)[C@@H](NC(=O)OC)[C@@H](C)OC)[nH]4)ccc32)[nH]1)C(C)C
Response: 54

====

# assay explanation: Drug level in rat at 10 mg/kg measured at 1 hr
# Assay type: ADME, organism-based
# condition set: in vivo, read-out: Drug uptake
value type: concentration at 1 h (nM)
Please give a number only; it is taken to be in nM.

Prompt: Could you tell me which concentration at 1 h is on file for COC(=O)N[C@H](C(=O)N1CCC[C@H]1c1ncc(-c2ccc3c(c2)cc2n3[C@H](c3ccccc3)Oc3cc(-c4cnc([C@@H]5CCCN5C(=O)[C@@H](NC(=O)OC)C5CCOCC5)[nH]4)ccc3-2)[nH]1)C(C)C ?
Response: 30

====

# Tested on: Nonstructural protein 5A (Hepatitis C virus), Q5L478 [Y93H]
# assay explanation: Inhibition of HCV genotype 1a NS5A Y93H mutant assessed as reduction in viral RNA level by cell based real time PCR method
# condition set: Hepatitis C virus subtype 1a
value type: EC90 (nM)
// note: answer is a bare numeric in nM

Prompt: Data request, read-out EC90, for CC[C@H](C)[C@H](NC(=O)OC)C(=O)N1CCC[C@H]1c1ncc(-c2ccc3c(c2)O[C@@H](c2ccccc2)n2c-3cc3cc(-c4cnc([C@@H]5CCCN5C(=O)[C@@H](NC(=O)OC)C(C)C)[nH]4)ccc32)[nH]1
Response: 77

====

# assay explanation: Oral bioavailability in rat at 5 mg/kg
# Format: ADME, organism-based
# condition set: in vivo
value type: bioavailability (%)
Report as a plain number; the unit % is understood.

Prompt: Reported bioavailability for COC(=O)N[C@H](C(=O)N1CCC[C@H]1c1ncc(-c2ccc3c(c2)O[C@@H](c2ccccc2)n2c-3cc3cc(-c4cnc([C@@H]5CCCN5C(=O)[C@@H](NC(=O)OC)C5CCOCC5)[nH]4)ccc32)[nH]1)C1CCOCC1 : what is it?
Response: 0

====

EC90: recorded values
# Test system: Nonstructural protein 5A (Hepatitis C virus), Q5L478 [Y93H]
# assay explanation: Inhibition of HCV genotype 1a NS5A Y93H mutant assessed as reduction in viral RNA level by cell based real time PCR method
# condition set: Hepatitis C virus subtype 1a

In the examples that follow, each entry is paired with its recorded EC90.
COC(=O)N[C@@H](CC1CCOCC1)C(=O)N1CCC[C@H]1c1ncc(-c2ccc3c(c2)cc2n3[C@H](c3ccccc3)Oc3cc(-c4cnc([C@@H]5CCCN5C(=O)[C@@H](NC(=O)OC)C(C)C)[nH]4)ccc3-2)[nH]1; 24 nM
CN(C)[C@@H](C(=O)N1CCC[C@H]1c1ncc(-c2ccc3c(c2)O[C@@H](c2ccccc2)n2c-3cc3cc(-c4cnc([C@@H]5CCCN5C(=O)[C@@H](c5ccc(F)cc5)N(C)C)[nH]4)ccc32)[nH]1)c1ccc(F)cc1; > 100 nM

Continue with the compound presented below.
Prompt: For the compound CC[C@H](NC(=O)OC)C(=O)N1CCC[C@H]1c1ncc(-c2ccc3c(c2)O[C@@H](c2ccccc2)n2c-3cc3cc(-c4cnc([C@@H]5CCCN5C(=O)[C@H](CC)NC(=O)OC)[nH]4)ccc32)[nH]1 , what EC90 is on record?
Response: > 100 nM

====

Reported EC90 by item:
# target system: UniProt Q5L478
# assay explanation: Inhibition of wild type HCV genotype 1a NS5A assessed as reduction in viral RNA level by cell based real time PCR method
# condition set: Hepatitis C virus subtype 1a
Report only the number, with the unit nM understood.

Worked set:
COC(=O)N[C@H](C(=O)N1CCC[C@H]1c1ncc(-c2ccc3c(c2)O[C@@H](c2ccccc2)n2c-3cc3cc(-c4cnc([C@@H]5CCCN5C(=O)[C@@H](NC(=O)OC)C5CCC(F)(F)CC5)[nH]4)ccc32)[nH]1)C1CCC(F)(F)CC1; 0.03
COC(=O)N[C@H](C(=O)N1CCC[C@H]1c1ncc(-c2ccc3c(c2)O[C@@H](c2ccccc2)n2c-3cc3cc(-c4cnc([C@@H]5CCCN5C(=O)[C@@H](NC(=O)OC)C5CC5)[nH]4)ccc32)[nH]1)C1CC1; 0.028
COC(=O)N[C@H](C(=O)N1CCC[C@H]1c1ncc(-c2ccc3c(c2)O[C@@H](c2ccccc2)n2c-3cc3cc(-c4cnc([C@@H]5CCCN5C(=O)[C@@H](NC(=O)OC)C5CCC(F)(F)CC5)[nH]4)ccc32)[nH]1)C(C)C; 0.018

Prompt: Query (compound): COC(=O)N[C@@H](CC1CCOCC1)C(=O)N1CCC[C@H]1c1ncc(-c2ccc3c(c2)cc2n3[C@H](c3ccccc3)Oc3cc(-c4cnc([C@@H]5CCCN5C(=O)[C@@H](NC(=O)OC)C(C)C)[nH]4)ccc3-2)[nH]1 ; field requested: EC90
Response: 0.014

====

# target system: Nonstructural protein 5A (Hepatitis C virus)
# assay explanation: Inhibition of wild type HCV genotype 1a NS5A assessed as reduction in viral RNA level by cell based real time PCR method
# condition set: Hepatitis C virus subtype 1a
value type: EC90 (nM)
API: value field is a number in nM; no unit string.

Worked set:
COC(=O)N[C@H](C(=O)N1CCC[C@H]1c1ncc(-c2ccc3c(c2)cc2n3[C@H](c3ccccc3)Oc3cc(-c4cnc([C@@H]5CCCN5C(=O)[C@@H](NC(=O)OC)[C@@H](C)OC)[nH]4)ccc3-2)[nH]1)C(C)C; 0.062
CC[C@H](NC(=O)OC)C(=O)N1CCC[C@H]1c1ncc(-c2ccc3c(c2)O[C@@H](c2ccccc2)n2c-3cc3cc(-c4cnc([C@@H]5CCCN5C(=O)[C@H](CC)NC(=O)OC)[nH]4)ccc32)[nH]1; 0.016
COC(=O)N[C@H](C(=O)N1CCC[C@H]1c1ncc(-c2ccc3c(c2)O[C@@H](c2ccccc2)n2c-3cc3cc(-c4cnc([C@@H]5CCCN5C(=O)C5(NC(=O)OC)CCCCC5)[nH]4)ccc32)[nH]1)C(C)C; 0.035
COC(=O)N[C@H](C(=O)N1CCC[C@H]1c1ncc(-c2ccc3c(c2)O[C@@H](c2ccccc2)n2c-3cc3cc(-c4cnc([C@@H]5CCCN5C(=O)[C@@H](NC(=O)OC)C5CCOCC5)[nH]4)ccc32)[nH]1)C1CCOCC1; 0.06

Prompt: What does the data say about its EC90? Entry: COC(=O)NC1(C(=O)N2CCC[C@H]2c2ncc(-c3ccc4c(c3)O[C@@H](c3ccccc3)n3c-4cc4cc(-c5cnc([C@@H]6CCCN6C(=O)C6(NC(=O)OC)CCOCC6)[nH]5)ccc43)[nH]2)CCOCC1
Response: 1.4

====

# target system: Nonstructural protein 5A (Hepatitis C virus)
# assay explanation: Inhibition of wild type HCV genotype 2b NS5A assessed as reduction in viral RNA level by cell based real time PCR method
# condition set: Hepatitis C virus subtype 2b
value type: EC90

These recorded examples may help you get a feel for the data.
COC(=O)N[C@H](C(=O)N1CCC[C@H]1c1ncc(-c2ccc3c(c2)O[C@@H](c2ccccc2)n2c-3cc3cc(-c4cnc([C@@H]5CCCN5C(=O)[C@@H](NC(=O)OC)C5CCCCC5)[nH]4)ccc32)[nH]1)C1CCCCC1; > 100 nM
COC(=O)N[C@@H](CC1CCOCC1)C(=O)N1CCC[C@H]1c1ncc(-c2ccc3c(c2)O[C@@H](c2ccccc2)n2c-3cc3cc(-c4cnc([C@@H]5CCCN5C(=O)[C@H](CC5CCOCC5)NC(=O)OC)[nH]4)ccc32)[nH]1; 18 nM

Prompt: I have this compound here, O=C([C@@H](c1ccccc1)N1CCCC1)N1CCC[C@H]1c1ncc(-c2ccc3c(c2)O[C@@H](c2ccccc2)n2c-3cc3cc(-c4cnc([C@@H]5CCCN5C(=O)[C@@H](c5ccccc5)N5CCCC5)[nH]4)ccc32)[nH]1 , and I need its recorded EC90.
Response: 13 nM

Prompt: Endpoint output: EC90 of O=C([C@H]1CCCO1)N1CCC[C@H]1c1ncc(-c2ccc3c(c2)O[C@@H](c2ccccc2)n2c-3cc3cc(-c4cnc([C@@H]5CCCN5C(=O)[C@H]5CCCO5)[nH]4)ccc32)[nH]1 . Value?
Response: > 100 nM

Prompt: Query: EC90; subject: COC(=O)N[C@H](C(=O)N1CCC[C@H]1c1ncc(-c2ccc3c(c2)O[C@@H](c2ccccc2)n2c-3cc3cc(-c4cnc([C@@H]5CCCN5C(=O)[C@@H](NC(=O)OC)[C@@H](C)OC)[nH]4)ccc32)[nH]1)[C@@H](C)OC
Response: 17 nM

Prompt: Given the compound COC(=O)N[C@H](C(=O)N1CCC[C@H]1c1ncc(-c2ccc3c(c2)O[C@@H](c2ccccc2)n2c-3cc3cc(-c4cnc([C@@H]5CCCN5C(=O)[C@@H](NC(=O)OC)[C@@H](C)O)[nH]4)ccc32)[nH]1)[C@@H](C)O , what is its reported EC90?
Response: > 100 nM

Prompt: What does the data say about its EC90? Entry: COC(=O)N[C@@H](C)C(=O)N1CCC[C@H]1c1ncc(-c2ccc3c(c2)O[C@@H](c2ccccc2)n2c-3cc3cc(-c4cnc([C@@H]5CCCN5C(=O)[C@H](C)NC(=O)OC)[nH]4)ccc32)[nH]1
Response: > 100 nM
